test: Half-life in mouse liver microsomes at 1 uM incubated for 60 mins followed by NADPH generating system addition and measured by LC-MS/MS analysis; assay type: ADME, Microsome
Field: half-life at 1 µM. Provide a value for each of the compounds that follow.
Answers are plain numbers, in h.

Completed entries (count: 2):
>>> reported_measurement("CCC[C@H]1Oc2ccc(C)cc2[C@@H]1NC(=O)c1ccc(C(F)(F)F)[nH]c1=O")
0.56
>>> reported_measurement("CCC[C@H]1C[C@@H](NC(=O)c2ccc(C(F)(F)F)[nH]c2=O)c2cc(C)ccc2N1")
1.9

Let's switch to this compound now.
Tell me its half-life at 1 µM given CCC[C@@H]1C[C@@H](NC(=O)c2ccc(C(F)(F)F)[nH]c2=O)c2cc(C)ccc2N1 as the entry. 1.2
